These entries and their values trace back to paper PMC11024012.

biological target: SARS-CoV-2 Spike RBD/ACE2 (Homo sapiens, UniProt Q9BYF1); construct: 5 nM HIS-tagged SARS-CoV-2 Spike-RBDs; purchased Sino Biological; test: biochemical; assay type: binding, SARS-CoV-2 (Wuhan / USA-WA/2020 wild-type) spike; human ACE2; details: Spike RBD/ACE2 IC50
Sequence (Q9BYF1 18-740): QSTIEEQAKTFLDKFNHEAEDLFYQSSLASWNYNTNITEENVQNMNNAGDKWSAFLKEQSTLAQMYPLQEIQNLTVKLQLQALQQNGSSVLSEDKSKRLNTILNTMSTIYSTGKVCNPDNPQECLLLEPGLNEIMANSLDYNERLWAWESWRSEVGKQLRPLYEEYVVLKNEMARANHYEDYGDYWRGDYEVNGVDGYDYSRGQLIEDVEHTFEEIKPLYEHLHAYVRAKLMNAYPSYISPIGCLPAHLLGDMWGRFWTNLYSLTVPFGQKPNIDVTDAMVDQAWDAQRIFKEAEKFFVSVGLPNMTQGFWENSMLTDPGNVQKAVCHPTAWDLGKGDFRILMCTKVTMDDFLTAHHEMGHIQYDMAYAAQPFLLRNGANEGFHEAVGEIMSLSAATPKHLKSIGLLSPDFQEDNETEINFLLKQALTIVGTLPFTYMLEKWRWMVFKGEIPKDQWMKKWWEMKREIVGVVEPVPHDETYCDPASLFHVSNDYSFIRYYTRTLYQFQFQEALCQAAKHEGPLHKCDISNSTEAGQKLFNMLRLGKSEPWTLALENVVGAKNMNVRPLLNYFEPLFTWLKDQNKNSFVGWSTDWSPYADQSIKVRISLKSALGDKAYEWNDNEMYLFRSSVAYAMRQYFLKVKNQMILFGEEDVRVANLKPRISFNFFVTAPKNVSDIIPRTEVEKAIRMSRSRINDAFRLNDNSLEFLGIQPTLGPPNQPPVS
endpoint_name: IC50 (µM)
Give just the numeric value; µM need not be written.

Form field, IC50 with SARS-CoV-2 Spike RBD/ACE2 (Homo sapiens, UniProt Q9BYF1), item O=C(CCN1CCOCC1)Nc1ccc2c(c1)/C(=N\Nc1ccc(C(F)(F)F)cc1)C(=O)N2 : 12.1

* * *

biological target: SARS-CoV-2 Spike RBD/ACE2 (Homo sapiens); construct: 5 nM HIS-tagged SARS-CoV-2 Spike-RBDs; purchased Sino Biological; assay: biochemical; type: binding, SARS-CoV-2 (Wuhan / USA-WA/2020 wild-type) spike; human ACE2; settings: read-out: Spike RBD/ACE2 Percent block at 32 μM
Measured inhibition at 32 µM accompanies every entry in the list below.
Give just the numeric value; % need not be written.

# molecule, inhibition at 32 µM (%)
records = [
    ("O=C(CCN1CCOCC1)Nc1ccc2c(c1)/C(=N\\Nc1ccc(C(F)(F)F)cc1)C(=O)N2 [Compound 6i]", 64.5),
    ("CC1(C)COC2(OC1)C(=O)Nc1ccc(NC(=O)CCN3CCOCC3)cc12 [Compound 4c]", 2),
    ("CCS(=O)(=O)Nc1ccc2c(c1)/C(=C(/Nc1ccc(CN3CCCCC3)cc1)c1ccccc1)C(=O)N2 [Hesperadin, reference compound]", 43.3),
]

GET /value?item= O=C1Nc2ccc(NC(=O)c3ccc(Cl)cc3)cc2/C1=N\Nc1ccc(Cl)cc1Cl [Compound 6k] &field=inhibition at 32 µM returns 34.4

GET /value?item= O=C1Nc2ccc(NC(=O)c3ccc(Cl)cc3)cc2/C1=N\Nc1ccncc1 [Compound 6m] &field=inhibition at 32 µM returns 0

GET /value?item= Cc1ccc(N/N=C2/C(=O)Nc3ccc(NC(=O)c4ccc(Cl)cc4)cc32)cc1 [Compound 6j] &field=inhibition at 32 µM returns 2.8

GET /value?item= O=C(CCN1CCOCC1)Nc1ccc2c(c1)/C(=N\Nc1ccc(Cl)cc1Cl)C(=O)N2 [Compound 6h] &field=inhibition at 32 µM returns 21.3

GET /value?item= Cc1ccc(N/N=C2/C(=O)Nc3ccc(NC(=O)Cc4ccc(Cl)cc4)cc32)cc1 [Compound 6d] &field=inhibition at 32 µM returns 3.2

GET /value?item= O=C(Cc1ccc(Cl)cc1)Nc1ccc2c(c1)/C(=N\Nc1ccc(C(F)(F)F)cc1)C(=O)N2 [Compound 6f] &field=inhibition at 32 µM returns 27.1

GET /value?item= CC(=O)Nc1ccc2c(c1)/C(=N\Nc1ccc(C)cc1)C(=O)N2 [Compound 6a] &field=inhibition at 32 µM returns 21.5

* * *

molecular target: SARS-CoV-2 Spike RBD/ACE2 (Homo sapiens, UniProt Q9BYF1); construct: 5 nM HIS-tagged SARS-CoV-2 Spike-RBDs; purchased Sino Biological; assay: biochemical; format: binding, SARS-CoV-2 (Wuhan / USA-WA/2020 wild-type) spike; human ACE2; conditions: read-out: Spike RBD/ACE2 Percent block at 32 μM
Measured inhibition at 32 µM accompanies every entry in the list below.
Give just the numeric value; % need not be written.

# molecule, target_or_test_system, inhibition at 32 µM (%)
rows = [
    ("CC(=O)Nc1ccc2c(c1)C1(OCC(C)(C)CO1)C(=O)N2 [Compound 4a]", "SARS-CoV-2 Spike RBD/ACE2 (Homo sapiens, UniProt Q9BYF1)", 0),
    ("CC(=O)Nc1ccc2c(c1)/C(=N\\Nc1ccc(Cl)cc1Cl)C(=O)N2 [Compound 6b]", "SARS-CoV-2 Spike RBD/ACE2 (Homo sapiens, UniProt Q9BYF1)", 21.5),
    ("O=C1Nc2ccc(NC(=O)c3ccc(Cl)cc3)cc2/C1=N\\Nc1ccc(C(F)(F)F)cc1 [Compound 6l]", "SARS-CoV-2 Spike RBD/ACE2 (Homo sapiens, UniProt Q9BYF1)", 44.2),
    ("CC1(C)COC2(OC1)C(=O)Nc1ccc(NC(=O)Cc3ccc(Cl)cc3)cc12 [Compound 4b]", "SARS-CoV-2 Spike RBD/ACE2 (Homo sapiens, UniProt Q9BYF1)", 20.1),
    ("CC(=O)Nc1ccc2c(c1)/C(=N\\Nc1ccncc1)C(=O)N2 [Compound 6c]", "SARS-CoV-2 Spike RBD/ACE2 (Homo sapiens, UniProt Q9BYF1)", 5.2),
    ("CC1(C)COC2(OC1)C(=O)Nc1ccc(NC(=O)c3ccc(Cl)cc3)cc12 [Compound 4d]", "SARS-CoV-2 Spike RBD/ACE2 (Homo sapiens, UniProt Q9BYF1)", 22.5),
]

GET /value?item= O=C(Cc1ccc(Cl)cc1)Nc1ccc2c(c1)/C(=N\Nc1ccc(Cl)cc1Cl)C(=O)N2 [Compound 6e] &field=inhibition at 32 µM returns 10.4
